Where do these numbers come from? They come from PubChem BioAssay.

assay: fission yeast growth modulation, primary screen, strain 972, OD600, 24 h, no modulator (AID 1090);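 further: basal condition with compound alone and no growth modifier present; test concentration not given here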; details: S. pombe 972 growth, called active from +8 up or from −8 down
Activity calls are given as the source filed them.
Assign a class; possible classes are class 1 for active, class 0 for inactive

Study these solved cases before continuing.
compound	assigned label
CC(C)C[C@@H]1NC(=O)[C@H]2C[C@@H](C(=O)NCCCCCCN(C)C)[C@@H](c3cccc(OCCO)c3)N2C1=O	class 0
COC(=O)[C@H](C)NC(=O)CCC1CC(OC(=O)NCCc2ccc(F)cc2)CC2(CCCC(COC(=O)NCCc3ccc(Cl)cc3)O2)O1 (some centres undefined)	class 0

Q: Hi, do you know how `CC(C)CON=C1C[C@@H](O)[C@@H](O)[C@@H]2[C@@H]3C(=O)N([C@@H](C)c4ccccc4)C(=O)[C@@H]3CC[C@H]12` came out in this test?
Ans: class 0

Q: Hi, do you know how `C=CCOC(=O)[C@H]1[C@@H]2C(=O)O[C@@H](c3ccccc3)[C@@H](c3ccccc3)N2[C@@H](c2ccc(OCCOC(=O)[C@H]3C[C@H]4C(=O)N[C@@H](Cc5ccccc5)C(=O)N4[C@H]3c3ccc(O)cc3)cc2)[C@]12C(=O)Nc1ccccc12` came out in this test?
Ans: class 0

Q: Hi, do you know how `COCCOC(=O)N1C(=O)[C@@]2(c3cc(C#CC4(O)CCCCCC4)ccc31)[C@H](C(=O)N1CCN(c3ncccn3)CC1)[C@H]1C(=O)O[C@H](c3ccccc3)[C@H](c3ccccc3)N1[C@@H]2c1ccc(OCCO)cc1` came out in this test?
Ans: class 0

Q: Hi, do you know how `CC(C)[C@H](NC(=O)OC(C)(C)C)[C@@H](O)CC(=O)OC(C)(C)C` came out in this test?
Ans: class 0

Q: Hi, do you know how `Cc1ccc(F)cc1S(=O)(=O)N[C@@H]1CCN(Cc2ccc(CC(C)C)cc2)C1` came out in this test?
Ans: class 1
